Molecular target: TDP2 (14M_zTDP2) (Danio rerio)
Sequence (Q5XJA0 121-369): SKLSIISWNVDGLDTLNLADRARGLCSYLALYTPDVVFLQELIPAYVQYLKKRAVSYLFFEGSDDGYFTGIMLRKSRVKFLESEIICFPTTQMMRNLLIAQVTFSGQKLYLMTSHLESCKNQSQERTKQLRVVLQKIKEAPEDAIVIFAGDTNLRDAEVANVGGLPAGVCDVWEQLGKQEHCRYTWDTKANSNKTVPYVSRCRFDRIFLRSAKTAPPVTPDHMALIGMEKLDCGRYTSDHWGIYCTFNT
pIC50: −log10 of the molar value.
Some compounds, each annotated with its measured pIC50.

[
  {
    "compound": "O=C1NC(=O)c2ccccc2C1=Cc1ccc(C(=O)O)cc1 [12q]",
    "pIC50": 5.32
  },
  {
    "compound": "O=C1NC(=O)c2ccccc2C1=Cc1ccc(O)cc1 [12k]",
    "pIC50": 5.00
  },
  {
    "compound": "O=C1NC(=O)c2ccccc2C1=Cc1ccc2[nH]ccc2c1 [12i]",
    "pIC50": 4.89
  },
  {
    "compound": "O=C1NC(=O)c2ccccc2C1=Cc1ccc2[nH]ncc2c1 [12h]",
    "pIC50": 4.72
  },
  {
    "compound": "O=C1Cc2ccccc2C(=O)N1 [compound 8, isoquinoline-1,3-dione, reference compound]",
    "pIC50": 4.66
  }
]

The measured values listed here are drawn from paper PMC7993140.
